# Tested on: UO-31
# EXPERIMENT SUMMARY: NCI tumour cell line growth inhibition, 48 h
The source made the active and inactive calls. No stated cut-off is given here; in the data, active = GI50 up to about 1.1 µM and inactive = higher.
READOUT KIND: GI50

A selection of reference data follows.
compound=Cc1c(-c2ccccn2)ccc2ccccc12 readout_kind=GI50 recorded_value="32.7 µM (inactive)"
compound=C=CCOC(=O)Cn1cnc2c(N)ncnc21 readout_kind=GI50 recorded_value="> 100 µM (inactive)"
compound="CC(=O)OCC(OC(C)=O)C(OC(C)=O)C(OC(C)=O)C(/C=N\\Nc1nc2ccccc2c(=O)[nH]1)OC(C)=O (stereo not given)" readout_kind=GI50 recorded_value="> 100 µM (inactive)"

Just so you know, measured GI50 for CC(=O)Oc1cc(-c2oc3cc(OC(C)=O)c(C4OC(CO)C(O)C(O)C4O)c(OC(C)=O)c3c(=O)c2O)c(OC(C)=O)cc1O (stereo not given) came out at > 100 µM (inactive)

Record CC1(S)CC2C(CC1Sc1ccccc1)C2(C)C (stereo not given) , field GI50: > 100 µM (inactive)

Kindly note the recorded GI50 for Cc1cccc(C(C)(C)C)c1NC(=O)CCl , which is > 100 µM (inactive)

Entry COC(=O)CC1NC(=O)C1C1(C)OCCO1 (stereo not given) ; GI50 = > 100 µM (inactive)

Lab note: CN(C)CCS/C(=N\c1ccccc1)N1CCCCC1 gave GI50 of 20.3 µM (inactive)

Where do the numbers come from? From ChEMBL document CHEMBL1201862.
